assay: Inhibitory concentration against luciferase synthesis in Streptococcus pneumoniae; assay type: functional
Entries and their pIC50
Hey, just a heads up that pIC50 is the negative log base 10 of the concentration in molar.

Worked examples follow.
compound	pIC50
CN(C)CCN(C)c1ccnc2nc(N3CCCC3)c(F)cc12	4.74
NC1CCN(c2nc3ncc(C(=O)O)c(O)c3cc2F)C1 (configuration not stated)	5.30
NC1CCN(c2nc3ncc(CNCCCc4ccccc4)c(O)c3cc2F)C1 (configuration not stated)	5.00
O=C(O)c1cnc2nc(N3CCCC3)c(F)cc2c1O	5.00
CC(=O)c1cnc2nc(N3CCC(N)C3)c(F)cc2c1O (configuration not stated)	4.30
CCCNc1ccnc2nc(N3CCCC3)c(F)cc12	4.72

Ask: Bench note: what pIC50 did CCOC(=O)c1cnc2nc(N3CCC(N)C3)c(F)cc2c1O (configuration not stated) show?
Reply: 4.70

Ask: Now the same for NC1CCN(c2nc3ncc(CNc4ccccc4)c(O)c3cc2F)C1 (configuration not stated)
Reply: 4.27

---

experiment: Inhibitory concentration against luciferase synthesis in Streptococcus pneumoniae; type: functional
Label 1.0 when IC50 is strictly below 20 µM; otherwise label 0.0.

Ask: Dear colleague, could you confirm whether IC50 of CCN(CC)CCCNCc1cnc2nc(N3CCC(N)C3)c(F)cc2c1O (configuration not stated) falls below 20 µM? Thanks.
Reply: 1.0

---

test: Inhibitory concentration against luciferase synthesis in Streptococcus pneumoniae; assay type: functional
Entries and their IC50
Give your result in µM as a bare value.

molecule	IC50 [µM]
NC(=O)c1cnc2nc(N3CCC(N)C3)c(F)cc2c1O (stereo unspecified)	23

Ask: Bench note: what IC50 did NC(=O)CNc1ccnc2nc(N3CCCC3)c(F)cc12 show?
Reply: 82

Ask: Now the same for COCCNc1ccnc2nc(N3CCCC3)c(F)cc12
Reply: 39

---

Entries and their IC50
assay: Inhibitory concentration against luciferase synthesis in Streptococcus pneumoniae; type: functional
Give your result in µM as a bare value.

Worked examples follow.
molecule	test.result
CC(C)CCNC(=O)c1cnc2nc(N3CCC(N)C3)c(F)cc2c1O (stereo unspecified)	25
NNc1ccnc2nc(N3CCCC3)c(F)cc12	89

Ask: Bench note: what IC50 did NC1CCN(c2nc3ncc(CNCc4ccccc4)c(O)c3cc2F)C1 (stereo unspecified) show?
Reply: 25

Ask: Now the same for NCCNc1ccnc2nc(N3CCCC3)c(F)cc12
Reply: 11

Ask: Now the same for OCCNc1ccnc2nc(N3CCCC3)c(F)cc12
Reply: 91

---

assay: Inhibitory concentration against luciferase synthesis in Streptococcus pneumoniae; format: functional
value.kind: IC50

Worked examples follow.
compound	value.kind	test.result
OCc1cnc2nc(N3CCCC3)c(F)cc2c1O	IC50	> 100 µM
Oc1c(CNc2ccccc2)cnc2nc(N3CCCC3)c(F)cc12	IC50	> 100 µM

Ask: Bench note: what IC50 did CC(C)CCN(C)C(=O)c1cnc2nc(N3CCC(N)C3)c(F)cc2c1O (stereo not drawn) show?
Reply: > 100 µM
